In this section, each of the compounds is paired with its reported inhibition.
Assay: inhibition of NOD2-driven NF-kB reporter – cell-based, luminescence, uHTS, HEK293 (AID 1566)
Conditions: HEK293 NOD2/NF-kB luciferase reporter, at 4 µM, active compounds read high
About 1,800 (0.62%) of roughly 290,000 compounds were called active. This excerpt belongs to a sample that is enriched for actives.
Metric Name: inhibition

Compound: COc1ccc(NC(=O)c2cccc(N3C(=O)C4C5C=CC(C6CC56)C4C3=O)c2)cc1 (configuration not stated)
Result: 9.4% (inactive)

Compound: O=C(CCC(=O)Nc1ccc(Cl)cc1Cl)N/N=C/c1ccc([N+](=O)[O-])o1
Result: 33.1% (inactive)

Compound: COC(=O)N/N=C/c1ccc([N+](=O)[O-])o1
Result: -0.6% (inactive)

Compound: COc1ccc(CNCCNC(=O)c2nonc2N)cc1OC
Result: 11.4% (inactive)

Compound: CCc1cc(=O)oc2cc(C)cc(OCC(=O)C(C)(C)C)c12
Result: 8.9% (inactive)

Compound: CCCCCCCC(=O)N/N=C/c1ccc([N+](=O)[O-])o1
Result: 16.9% (inactive)

Compound: COc1ccc(NC(C)=O)cc1NC(=O)c1ccc2ccccc2c1
Result: -14.6% (inactive)

Compound: CCN(CC)CCn1c(=S)[nH]c2ccc(Br)cc2c1=O
Result: 7.1% (inactive)

Compound: Cc1cccc(NS(=O)(=O)c2ccc(C(=O)NCCCN3CCOCC3)cc2)c1C
Result: 14.9% (inactive)

Compound: O=C(CN1CCCCCCC1)N/N=C/c1ccc([N+](=O)[O-])o1
Result: 67.4% (active)

Compound: O=C(COC(=O)c1ccccc1O)Nc1cccc(S(=O)(=O)NC2=NCCCCC2)c1
Result: 14.9% (inactive)

Compound: O=C(Cc1ccc([N+](=O)[O-])cc1)N/N=C/c1ccc([N+](=O)[O-])o1
Result: 33.1% (inactive)

Compound: CC(C)(C)c1ccc(C(=O)NNC(=O)c2cccc(-n3cnnn3)c2)cc1
Result: 13.7% (inactive)

Compound: COc1ccc(C(=O)Nc2ccc(NC(=O)c3cnccn3)cn2)cc1
Result: -1.7% (inactive)

Compound: CCC(C)(C)c1ccc(OCCCC[n+]2ccc(C)cc2)c(C(C)(C)CC)c1
Result: 29.7% (inactive)

Compound: COc1ccc(S(=O)(=O)N(CC(=O)N2CCN(C)CC2)c2ccc(C)cc2)cc1Br
Result: -9.5% (inactive)

Compound: O=C(Nc1ccccc1)c1cccc(N2C(=O)C3C4C=CC(C5CC45)C3C2=O)c1 (configuration not stated)
Result: 31.7% (inactive)

Compound: NC(=O)c1cc([N+](=O)[O-])ccc1NCCN1C(=O)c2ccc(C(=O)O)cc2C1=O
Result: 17.5% (inactive)

Compound: CCCc1ccc(-c2ccc(/C=C/C(=O)O)cc2)nc1
Result: 78.4% (active)

Compound: Nc1nnc(COc2ccccc2)s1
Result: -4.5% (inactive)

Compound: CCCCCc1ccc(-c2ccc(/C=C/C(=O)O)cc2)nc1
Result: -82.7% (inactive)

Compound: Cc1ccc(S(=O)(=O)N2CCCCC2)cc1NC(=O)CSc1ncnc2ccccc12
Result: -36.1% (inactive)

====

In this section, each of the compounds is paired with its reported inhibition.
Experiment: inhibition of NOD2-driven NF-kB reporter – cell-based, luminescence, uHTS, HEK293 (AID 1566)
Details: HEK293 NOD2/NF-kB luciferase reporter, at 4 µM, active compounds read high
The campaign covered roughly 290,000 compounds. About 1,800 (0.62%) were called active. This is one part of a sample in which actives are shown more often than they occur.

Compound: O=C1CCCN2N=C(SCC(=O)N3CCCCC3)SC2=N1
inhibition [%]: 5.8
--
Compound: Cc1nnsc1C(=O)NC1CCCc2c1cnn2-c1cc(F)cc(F)c1 (configuration not stated)
inhibition [%]: 21.9
--
Compound: Cc1nnsc1C(=O)NC1CCCc2c1cnn2-c1ccc(F)cc1F (configuration not stated)
inhibition [%]: 49.3
--
Compound: O=C(/C=C/c1ccccc1)NC(=S)Nc1ccccc1O
inhibition [%]: 0.9
--
Compound: Cc1nnsc1C(=O)NC1CCCc2c1cnn2-c1ccccc1F (configuration not stated)
inhibition [%]: 51.1
--
Compound: Cc1c(CC(=O)N[C@@H](CCCNC(N)=O)C(=O)O)c(=O)oc2cc3oc4c(c3cc12)CCCC4
inhibition [%]: 14.7
--
Compound: O=C(O)c1cc(-c2ccc(N3CCOCC3)cc2)nn1-c1ccccc1Cl
inhibition [%]: 3.2
--
Compound: Cc1cc(C)cc(-n2ncc3c2CCCC3NC(=O)C2(C(N)=O)CC2)c1 (configuration not stated)
inhibition [%]: 7.2
--
Compound: O=C(NC1=C(NC2CCS(=O)(=O)C2)C(=O)c2ccccc2C1=O)c1ccccc1 (configuration not stated)
inhibition [%]: 73.2
--
Compound: Cc1ccccc1-c1cn(-c2ccccc2)c(=S)[nH]1
inhibition [%]: -47.3
--
Compound: CCn1c(=O)n(CC)c2cc(S(=O)(=O)N3CCCCC3)c(C)cc21
inhibition [%]: -12.1
--
Compound: COc1ccc2c(c1)N(C(=O)CN1C(=O)C3CCCCC3C1=O)C(C)(C)C=C2C (configuration not stated)
inhibition [%]: -4.7
--
Compound: CCOc1ccc2[nH]c(=O)c(CN(CC3CCCN3CC)C(=O)NCc3ccccc3)cc2c1 (configuration not stated)
inhibition [%]: 13.6
--
Compound: O=C(NCCc1ccccc1)C1CCCN(c2ncnc3c2nc2n3CCCCC2)C1 (configuration not stated)
inhibition [%]: 18.5
--
Compound: Cc1cccc(-n2ncc3c2CCCC3NC(=O)C2CCOCC2)c1C (configuration not stated)
inhibition [%]: 41.8
--
Compound: N=C(N)SCc1cn(-c2ccccc2)nc1-c1ccc(Br)cc1
inhibition [%]: 8.8
--
Compound: CN(C1=C(NC(=O)c2ccccc2)C(=O)c2ccccc2C1=O)C1CCS(=O)(=O)C1 (configuration not stated)
inhibition [%]: -12.3
--
Compound: O=C(N/N=C/c1cccc(O)c1)C(=O)N1CCCCCC1
inhibition [%]: 8.2
--
Compound: Cc1cc2c(s1)c1cnn(Cc3ccccc3F)c(=O)c1n2C
inhibition [%]: 10.1
--
Compound: NS(=O)(=O)c1ccc(CCNC(=O)c2ccc3ccccc3n2)cc1
inhibition [%]: -17.8
--
Compound: CC(=O)NC1=C(NC2CCS(=O)(=O)C2)C(=O)c2ccccc2C1=O (configuration not stated)
inhibition [%]: 5.3
--
Compound: O=C(CC1CC2CCC1C2)OCC(=O)c1c[nH]c2ccccc12 (configuration not stated)
inhibition [%]: 12.6

====

Experiment: inhibition of NOD2-driven NF-kB reporter – cell-based, luminescence, uHTS, HEK293 (AID 1566)
Conditions: HEK293 NOD2/NF-kB luciferase reporter, at 4 µM, active compounds read high
About 1,800 (0.62%) of roughly 290,000 compounds were called active. Only a selection was taken, and actives are over-represented in it overall.
Metric Name: inhibition (%)

Molecule: N#CC1=C(SCC(=O)Nc2ccc(C(=O)O)cc2)NC(=O)CC1c1ccco1 (stereo not given)
Metric Name: inhibition
Unit Name: %
Quantitative Result: -4.5
//
Molecule: CC(C)C(c1nnnn1C1CCCCC1)N1CCOCC1 (stereo not given)
Metric Name: inhibition
Unit Name: %
Quantitative Result: 0.1
//
Molecule: COc1cc(NC(=O)c2cccs2)c(C(=O)OCC(=O)c2cc(C)n(-c3ccc(F)cc3)c2C)cc1OC
Metric Name: inhibition
Unit Name: %
Quantitative Result: 9.1
//
Molecule: COc1ccc(-n2c(C)cc(C(=O)COC(=O)c3cc(NC(=O)c4cccs4)c(OC)c(OC)c3)c2C)cc1
Metric Name: inhibition
Unit Name: %
Quantitative Result: 12.4
//
Molecule: CC(SCc1ccccc1)C(=O)NC1CCCC1 (stereo not given)
Metric Name: inhibition
Unit Name: %
Quantitative Result: -2.5
//
Molecule: O=C(CCn1cccc1)NCc1ccc(Cl)cc1
Metric Name: inhibition
Unit Name: %
Quantitative Result: 5.1
//
Molecule: Cc1ccc(-n2nc3c(=O)n(CCCC(=O)N4CCC(C)CC4)nc(C)c3c2C)cc1
Metric Name: inhibition
Unit Name: %
Quantitative Result: 27.9
//
Molecule: Cc1cc(C(=O)CN2C(=O)C3CC=CCC3C2=O)c(C)n1-c1ccccc1 (stereo not given)
Metric Name: inhibition
Unit Name: %
Quantitative Result: -109
//
Molecule: NS(=O)(=O)c1ccc(CCNC(=O)c2cc(-c3ccc(Br)cc3)nc3ccccc23)cc1
Metric Name: inhibition
Unit Name: %
Quantitative Result: -18.4
//
Molecule: COC(=O)C(Cc1ccc(O)cc1)NC(=O)C(C)NC(=O)c1ccc(C(C)(C)C)cc1 (stereo not given)
Metric Name: inhibition
Unit Name: %
Quantitative Result: -9.1

====

In this section, each of the compounds is paired with its reported inhibition.
Assay: inhibition of NOD2-driven NF-kB reporter – cell-based, luminescence, uHTS, HEK293 (AID 1566)
Settings: HEK293 NOD2/NF-kB luciferase reporter, at 4 µM, active compounds read high
Screen size: about 290,000 compounds; about 1,800 (0.62%) were called active. The sample as a whole holds a higher share of actives than the screen did.
Metric Name: inhibition (%)

Compound: O=C(CNc1ccc2ccccc2c1)N/N=C/c1ccc([N+](=O)[O-])o1
Unit Name: %
Quantitative Result: -4.1

Compound: CC(C)OC(=O)Nc1ccc(Oc2c(F)c(F)c(F)c(F)c2F)cc1
Unit Name: %
Quantitative Result: -5.3

Compound: CN(C(=O)Cn1nnc2ccccc2c1=O)C1CCCCC1
Unit Name: %
Quantitative Result: 6.8

Compound: O=C(N/N=C/c1ccc([N+](=O)[O-])cc1)c1cc2ccccc2o1
Unit Name: %
Quantitative Result: 30.1

Compound: O=C(CNc1ccccc1)N/N=C/c1ccc([N+](=O)[O-])o1
Unit Name: %
Quantitative Result: 46.1

Compound: O=C(CN(CC1CCCO1)C(=O)CCC(=O)Nc1ccccn1)NCC1CCCO1 (stereo unspecified)
Unit Name: %
Quantitative Result: 4.7

Compound: Nc1cc(=O)[nH]c(SCc2ccc(Cl)cc2Cl)n1
Unit Name: %
Quantitative Result: 58.1

Compound: Nc1cc(=O)[nH]c(SCc2ccccc2Cl)n1
Unit Name: %
Quantitative Result: 23.4

Compound: Cc1ccc(C(=O)N/N=C\c2ccc([N+](=O)[O-])o2)cn1
Unit Name: %
Quantitative Result: 36

Compound: Cc1cc(C(=O)N/N=C/c2ccc([N+](=O)[O-])o2)c(C)o1
Unit Name: %
Quantitative Result: 35.5

Compound: CN1C/C(=C/c2cccnc2)C(=O)/C(=C/c2cccnc2)C1
Unit Name: %
Quantitative Result: 10.1

Ref: PubChem BioAssay AID1566
